A collection of compounds and their measured pEC50
- System: LXR α LBD protein (Homo sapiens (Human), UniProt Q13133)
- Sequence (Q13133 209-447): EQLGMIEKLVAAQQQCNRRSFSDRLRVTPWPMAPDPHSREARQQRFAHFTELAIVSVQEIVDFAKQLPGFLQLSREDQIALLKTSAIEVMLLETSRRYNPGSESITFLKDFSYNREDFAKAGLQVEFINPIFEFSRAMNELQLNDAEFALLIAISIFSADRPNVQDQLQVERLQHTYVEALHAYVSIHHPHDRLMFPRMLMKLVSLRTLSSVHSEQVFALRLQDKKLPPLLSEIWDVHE
- Assay protocol: Human LXRα coactivator recruitment FRET assay, agonist mode
- Type: biochemical
- Setup conditions: agonist mode
// field semantics: pEC50 = negative decimal log of concentration (mol/L)

Ask: Bench note: what pEC50 did CC(C)[C@@H]1CN(c2ccc(C#N)c(S(C)(=O)=O)c2)CCN1c1cccc(C(F)(F)F)n1 [7-38] show?
Reply: 5.50

Ask: Another: Cc1cc(C)nc(N2CCN(c3cccc(S(C)(=O)=O)c3)C[C@H]2C(C)C)n1 [Cpd No 7-3]
Reply: 6.29

Ask: Another: CC(C)(O)[C@@H]1CN(c2cccc(S(C)(=O)=O)c2)CCN1c1nccc(C(F)(F)F)n1 [7-24]
Reply: 6.34

Ask: Another: CC(C)[C@@H]1CN(c2cccc(S(C)(=O)=O)c2)CCN1c1ncccn1 [7-2]
Reply: 5.99
